System: HepG2
Experiment: Antiproliferative activity against human HepG2 cells after 48 hrs by MTT assay
Format: functional, cell-based
Conditions: HepG2, 48 h
pIC50: −log10 of the molar value.
Exercise: for every item that follows, state its recorded pIC50.

cpd smiles	test system	result value
COC(C)(C)CCC[C@@](C)(O)[C@H]1CC[C@]2(C)[C@@H]1[C@H](OC(=O)/C=C/c1ccccc1)C[C@@H]1[C@@]3(C)CC[C@H](O)C(C)(C)[C@@H]3CC[C@]12C	HepG2	< 4.30
COC(C)(C)CCC[C@@](C)(O)[C@H]1CC[C@]2(C)[C@@H]1[C@H](O)C[C@@H]1[C@@]3(C)CC[C@H](OC(=O)/C=C/c4ccc(Cl)cc4)C(C)(C)[C@@H]3CC[C@]12C	HepG2	4.57

Given COC(C)(C)CCC[C@@](C)(O)[C@H]1CC[C@]2(C)[C@@H]1[C@H](OC(=O)c1cc([N+](=O)[O-])cc([N+](=O)[O-])c1)C[C@@H]1[C@@]3(C)CC[C@H](O)C(C)(C)[C@@H]3CC[C@]12C , state its recorded pIC50.
< 4.30

---

Tested on: PC-3
Experiment: Antiproliferative activity against human PC3 cells after 48 hrs by MTT assay
Assay type: functional, cell-based
Conditions: PC-3, 48 h
pIC50: −log10 of the molar value.
Exercise: for every item that follows, state its recorded pIC50.

Solved cases below.
cpd smiles	pIC50
COC(C)(C)CCC[C@@](C)(O)[C@H]1CC[C@]2(C)[C@@H]1[C@H](O)C[C@@H]1[C@@]3(C)CC[C@H](OC(=O)c4ccc(F)cc4)C(C)(C)[C@@H]3CC[C@]12C	4.82
COC(C)(C)CCC[C@@](C)(O)[C@H]1CC[C@]2(C)[C@@H]1[C@H](O)C[C@@H]1[C@@]3(C)CC[C@H](OC(=O)c4cc(F)ccc4Br)C(C)(C)[C@@H]3CC[C@]12C	4.40
COC(C)(C)CCC[C@@](C)(O)[C@H]1CC[C@]2(C)[C@@H]1[C@H](OC(=O)/C=C/c1ccccc1)C[C@@H]1[C@@]3(C)CC[C@H](OC(=O)/C=C/c4ccccc4)C(C)(C)[C@@H]3CC[C@]12C	< 4.30
COC(C)(C)CCC[C@@](C)(O)[C@H]1CC[C@]2(C)[C@@H]1[C@H](OC(=O)c1ccccc1C)C[C@@H]1[C@@]3(C)CC[C@H](O)C(C)(C)[C@@H]3CC[C@]12C	< 4.30
COC(C)(C)CCC[C@@](C)(O)[C@H]1CC[C@]2(C)[C@@H]1[C@H](OC(=O)c1ccc(I)cc1)C[C@@H]1[C@@]3(C)CC[C@H](OC(=O)c4ccc(I)cc4)C(C)(C)[C@@H]3CC[C@]12C	< 4.30

Given COC(C)(C)CCC[C@@](C)(O)[C@H]1CC[C@]2(C)[C@@H]1[C@H](OC(=O)c1ccc(Br)cc1)C[C@@H]1[C@@]3(C)CC[C@H](OC(=O)c4ccc(Br)cc4)C(C)(C)[C@@H]3CC[C@]12C , state its recorded pIC50.
< 4.30

---

Tested on: HepG2
Assay: Antiproliferative activity against human HepG2 cells after 48 hrs by MTT assay
Format: functional, cell-based
Conditions: HepG2, 48 h
pIC50: −log10 of the molar value.
Exercise: for every item that follows, state its recorded pIC50.

cpd smiles	result value
COC(C)(C)CCC[C@@](C)(O)[C@H]1CC[C@]2(C)[C@@H]1[C@H](OC(=O)c1ccc([N+](=O)[O-])cc1)C[C@@H]1[C@@]3(C)CC[C@H](OC(=O)c4ccc([N+](=O)[O-])cc4)C(C)(C)[C@@H]3CC[C@]12C	< 4.30
COC(C)(C)CCC[C@@](C)(O)[C@H]1CC[C@]2(C)[C@@H]1[C@H](OC(=O)c1ccc([N+](=O)[O-])cc1)C[C@@H]1[C@@]3(C)CC[C@H](O)C(C)(C)[C@@H]3CC[C@]12C	< 4.30

# next molecule below
Return pIC50 measured with HepG2 given this molecule: COC(C)(C)CCC[C@@](C)(O)[C@H]1CC[C@]2(C)[C@@H]1[C@H](OC(=O)c1ccc(I)cc1)C[C@@H]1[C@@]3(C)CC[C@H](O)C(C)(C)[C@@H]3CC[C@]12C
< 4.30

---

Test system: BGC-823
Experiment: Antiproliferative activity against human BGC823 cells after 48 hrs by MTT assay
Assay type: functional, cell-based
Details: BGC-823, 48 h
pIC50: −log10 of the molar value.
Exercise: for every item that follows, state its recorded pIC50.

cpd smiles	pIC50
COC(C)(C)CCC[C@@](C)(O)[C@H]1CC[C@]2(C)[C@@H]1[C@H](OC(=O)/C=C/c1ccccc1)C[C@@H]1[C@@]3(C)CC[C@H](OC(=O)/C=C/c4ccccc4)C(C)(C)[C@@H]3CC[C@]12C	< 4.30

Hey, can you go through the list below and give me pIC50 for every item?
1. COC(C)(C)CCC[C@@](C)(O)[C@H]1CC[C@]2(C)[C@@H]1[C@H](OC(=O)c1ccc(I)cc1)C[C@@H]1[C@@]3(C)CC[C@H](OC(=O)c4ccc(I)cc4)C(C)(C)[C@@H]3CC[C@]12C
2. COC(C)(C)CCC[C@@](C)(O)[C@H]1CC[C@]2(C)[C@@H]1[C@H](OC(=O)/C=C/c1ccc(F)cc1)C[C@@H]1[C@@]3(C)CC[C@H](OC(=O)/C=C/c4ccc(F)cc4)C(C)(C)[C@@H]3CC[C@]12C

1. < 4.30
2. < 4.30

---

System: PC-3
Test: Antiproliferative activity against human PC3 cells after 48 hrs by MTT assay
Assay type: functional, cell-based
Settings: PC-3, 48 h
pIC50: −log10 of the molar value.
quantity name: pIC50

Solved cases below.
cpd smiles	quantity name	result value
COC(C)(C)CCC[C@@](C)(O)[C@H]1CC[C@]2(C)[C@@H]1[C@H](OC(=O)c1ccccc1I)C[C@@H]1[C@@]3(C)CC[C@H](OC(=O)c4ccccc4I)C(C)(C)[C@@H]3CC[C@]12C	pIC50	< 4.30
COC(C)(C)CCC[C@@](C)(O)[C@H]1CC[C@]2(C)[C@@H]1[C@H](O)C[C@@H]1[C@@]3(C)CC[C@H](OC(=O)c4ccccc4C)C(C)(C)[C@@H]3CC[C@]12C	pIC50	< 4.30

# next compound below
Return pIC50 measured with PC-3 given this compound: COC(C)(C)CCC[C@@](C)(O)[C@H]1CC[C@]2(C)[C@@H]1[C@H](OC(=O)c1ccc([N+](=O)[O-])cc1)C[C@@H]1[C@@]3(C)CC[C@H](O)C(C)(C)[C@@H]3CC[C@]12C
< 4.30

---

Tested on: BGC-823
Assay: Antiproliferative activity against human BGC823 cells after 48 hrs by MTT assay
Type: functional, cell-based
Details: BGC-823, 48 h
Exercise: for every item that follows, state its recorded pIC50.
One number for each entry, as −log10 of the molar value.

Solved cases below.
cpd smiles	quantity name	result value
COC(C)(C)CCC[C@@](C)(O)[C@H]1CC[C@]2(C)[C@@H]1[C@H](O)C[C@@H]1[C@@]3(C)CC[C@H](OC(=O)c4cc([N+](=O)[O-])cc([N+](=O)[O-])c4)C(C)(C)[C@@H]3CC[C@]12C	pIC50	5.02
COC(C)(C)CCC[C@@](C)(O)[C@H]1CC[C@]2(C)[C@@H]1[C@H](O)C[C@@H]1[C@@]3(C)CC[C@H](OC(=O)c4ccccc4Cl)C(C)(C)[C@@H]3CC[C@]12C	pIC50	4.55
COC(C)(C)CCC[C@@](C)(O)[C@H]1CC[C@]2(C)[C@@H]1[C@H](OC(=O)c1ccccc1[N+](=O)[O-])C[C@@H]1[C@@]3(C)CC[C@H](OC(=O)c4ccccc4[N+](=O)[O-])C(C)(C)[C@@H]3CC[C@]12C	pIC50	4.31
COC(C)(C)CCC[C@@](C)(O)[C@H]1CC[C@]2(C)[C@@H]1[C@H](OC(=O)c1ccc(F)cc1F)C[C@@H]1[C@@]3(C)CC[C@H](OC(=O)c4ccc(F)cc4F)C(C)(C)[C@@H]3CC[C@]12C	pIC50	4.42
COC(C)(C)CCC[C@@](C)(O)[C@H]1CC[C@]2(C)[C@@H]1[C@H](O)C[C@@H]1[C@@]3(C)CC[C@H](OC(=O)/C=C/c4ccc(Cl)cc4)C(C)(C)[C@@H]3CC[C@]12C	pIC50	4.59

Given COC(C)(C)CCC[C@@](C)(O)[C@H]1CC[C@]2(C)[C@@H]1[C@H](O)C[C@@H]1[C@@]3(C)CC[C@H](OC(=O)c4cccc(F)c4)C(C)(C)[C@@H]3CC[C@]12C , state its recorded pIC50.
5.28

---

System: HepG2
Experiment: Antiproliferative activity against human HepG2 cells after 48 hrs by MTT assay
Type: functional, cell-based
Conditions: HepG2, 48 h
Exercise: for every item that follows, state its recorded IC50.

Solved cases below.
cpd smiles	quantity name	result value
COC(C)(C)CCC[C@@](C)(O)[C@H]1CC[C@]2(C)[C@@H]1[C@H](OC(=O)c1ccc(F)cc1F)C[C@@H]1[C@@]3(C)CC[C@H](OC(=O)c4ccc(F)cc4F)C(C)(C)[C@@H]3CC[C@]12C	IC50	> 50 µM
COC(C)(C)CCC[C@@](C)(O)[C@H]1CC[C@]2(C)[C@@H]1[C@H](O)C[C@@H]1[C@@]3(C)CC[C@H](OC(=O)c4ccccc4C)C(C)(C)[C@@H]3CC[C@]12C	IC50	> 50 µM

Hey, can you go through the list below and give me IC50 for every item?
1. COC(C)(C)CCC[C@@](C)(O)[C@H]1CC[C@]2(C)[C@@H]1[C@H](O)C[C@@H]1[C@@]3(C)CC[C@H](OC(=O)c4cc(C)cc(C)c4)C(C)(C)[C@@H]3CC[C@]12C
2. COC(C)(C)CCC[C@@](C)(O)[C@H]1CC[C@]2(C)[C@@H]1[C@H](OC(=O)c1ccc(I)cc1)C[C@@H]1[C@@]3(C)CC[C@H](OC(=O)c4ccc(I)cc4)C(C)(C)[C@@H]3CC[C@]12C

1: > 50 µM; 2: > 50 µM

Given COC(C)(C)CCC[C@@](C)(O)[C@H]1CC[C@]2(C)[C@@H]1[C@H](OC(=O)c1ccccc1[N+](=O)[O-])C[C@@H]1[C@@]3(C)CC[C@H](OC(=O)c4ccccc4[N+](=O)[O-])C(C)(C)[C@@H]3CC[C@]12C , state its recorded IC50.
> 50 µM
